Tested on: UO-31 renal
testProtocol: NCI tumour cell line growth inhibition, 48 h
Threshold rule: TGI greater than or equal to 10 µM is condition met; below that, condition not met.

Input line: Tell me whether TGI is at least 10 µM here: "COC(=O)Nc1nc2ccc(Oc3ccc(NC(=O)Nc4ccccc4)cc3)cc2[nH]1"
Output line: condition met

Further cases:
Input line: Tell me whether TGI is at least 10 µM here: "CCN(CCCl)c1cc(CN(C)C)cc(NC(=O)c2ccc(C(=O)Nc3cc(CN(C)C)cc(N(CC)CCCl)c3)cc2)c1"
Output line: condition met

Input line: Tell me whether TGI is at least 10 µM here: "Cc1nc(N)c(N2CCN(S(N)(=O)=O)CC2)c(=O)[nH]1"
Output line: condition met

Input line: Tell me whether TGI is at least 10 µM here: COc1cc(C2=NN(C(C)=O)C(c3ccc(OC(C)=O)cc3OC(C)=O)O2)c(OC(C)=O)c2ccccc12 (stereo not drawn)
Output line: condition not met

Input line: Tell me whether TGI is at least 10 µM here: CC1=NN(c2ccccc2)C2(C1)C(Cl)C(=O)N2c1nc2ccccc2s1 (stereo not drawn)
Output line: condition met

Input line: Tell me whether TGI is at least 10 µM here: "O=C1C2=Cc3ccccc3CCN2c2ccccc21"
Output line: condition met

Input line: Tell me whether TGI is at least 10 µM here: "COc1cc2c(cc1OCCCNC(=O)c1cc3ccccc3[nH]1)N=C[C@@H]1CCCN1C2=O"
Output line: condition met

Input line: Tell me whether TGI is at least 10 µM here: CC(=O)OC1Oc2ccccc2-c2oc(=O)c(-c3cc4ccc(N(C)C)cc4oc3=O)cc21 (stereo not drawn)
Output line: condition met

Input line: Tell me whether TGI is at least 10 µM here: "CC[C@@]1(O)C(=O)OCc2c1cc1n(c2=O)Cc2c-1nc1ccccc1c2/C=N\NC(=O)C[n+]1ccccc1"
Output line: condition not met

Input line: Tell me whether TGI is at least 10 µM here: "O=C(CCl)Nc1ccc(Cl)cc1"
Output line: condition met

Input line: Tell me whether TGI is at least 10 µM here: COc1ccc(CC2Cc3ccccc3CCN2)cc1OC (stereo not drawn)
Output line: condition met

Input line: Tell me whether TGI is at least 10 µM here: "COC(=O)c1cc(Br)c(Br)n1C"
Output line: condition met

* * *

Test system: HOP-92 NSCLC
testProtocol: NCI tumour cell line growth inhibition, 48 h; in the data active = GI50 below about 0.43 µM; inactive = the rest
API: response.call in 1 = active, -1 = inactive

Input line: Name the outcome recorded for "CC/C=C\C[C@@H]1C/C=C2/C(=O)C=C[C@H]2C/C=C\CCCC(=O)O1" in the assay.
Output line: -1

* * *

Measured TGI accompanies every entry in the list below.
Test system: LOX IMVI melanoma
testProtocol: NCI tumour cell line growth inhibition, 48 h

Recorded TGI, per entry:
Input line: Determine from records and report TGI for "C1C2CC3CC1CC(c1nn4c(C56CC7CC(CC(C7)C5)C6)nnc4s1)(C2)C3"
Output line: > 100 µM

Input line: Determine from records and report TGI for "C=CCCCCCCCCC(=O)NS(=O)(=O)c1ccccc1"
Output line: > 100 µM

Input line: Determine from records and report TGI for "COC(=O)Nc1nc2ccc(Oc3ccc(NC(=O)Nc4ccccc4)cc3)cc2[nH]1"
Output line: > 9.6 µM

Input line: Determine from records and report TGI for CC(NC(=O)OCc1ccccc1)NC(=O)OC(C)(C)C (stereo not drawn)
Output line: > 100 µM

Input line: Determine from records and report TGI for OCC1OC(NC(=S)NCCC(F)(F)C(F)(F)C(F)(F)C(F)(F)C(F)(F)C(F)(F)F)C(O)C(O)C1O (stereo not drawn)
Output line: > 100 µM

Input line: Determine from records and report TGI for "CCCCNC(=S)Nc1nc(C(=O)NNC(=S)NCC)cs1"
Output line: > 100 µM

Input line: Determine from records and report TGI for "COc1ccc(OC)c(/C=C/C(=O)N/N=C/c2ccc(Cl)cc2)c1"
Output line: > 100 µM

Input line: Determine from records and report TGI for "CC[O-].CC[O-].O=C1c2ccccc2C(=O)c2c(O)ccc([O-])c21.O=C1c2ccccc2C(=O)c2c(O)ccc([O-])c21.[Ti+4]"
Output line: > 100 µM

Input line: Determine from records and report TGI for "CCS(=O)(=O)c1ccc(OC)c(Nc2ncc(-c3cccc(OC)c3)o2)c1"
Output line: 24.8 µM

Input line: Determine from records and report TGI for "O=C1C2=Cc3ccccc3CCN2c2ccccc21"
Output line: 38.7 µM

Further cases:
Input line: Determine from records and report TGI for "O=C1c2ccccc2-c2c1c1ccccc1c(=O)n2Cc1ccccc1"
Output line: > 100 µM

Input line: Determine from records and report TGI for "O=C(Nc1ccc(Cl)cc1)c1cc(S(=O)(=O)Nc2n[nH]c(Nc3ccc4ccccc4c3)n2)c(SSc2cc(Cl)c(C(=O)Nc3ccc(Cl)cc3)cc2S(=O)(=O)Nc2n[nH]c(Nc3ccc4ccccc4c3)n2)cc1Cl"
Output line: 37.8 µM

Input line: Determine from records and report TGI for CC1(C)C2CC(O)C1(C)CC2=O (stereo not drawn)
Output line: > 100 µM

* * *

Test system: T-47D breast
testProtocol: NCI tumour cell line growth inhibition, 48 h
Measured TGI accompanies every entry in the list below.

Input line: Determine from records and report TGI for "O=[N+]([O-])/C(C(Cl)=C(Cl)Cl)=C1\Nc2ccc([N+](=O)[O-])cc2N1"
Output line: > 100 µM

Input line: Determine from records and report TGI for "CC(=O)Nc1ccc(-c2nc3ccccc3s2)cc1Br"
Output line: > 100 µM

Input line: Determine from records and report TGI for "COc1cc2c(/C=C3/C(=O)Nc4ccc(O)cc43)c(Cl)n(Cc3ccccc3)c2cc1C"
Output line: > 74.8 µM

Input line: Determine from records and report TGI for "CN(C)CCCn1c2c(c3ccccc3c1=O)C(=O)c1ccccc1-2"
Output line: 14.8 µM

Input line: Determine from records and report TGI for "Cn1c(-c2cccs2)cc(-c2cccs2)c1-c1cccs1"
Output line: > 51.8 µM

Further cases:
Input line: Determine from records and report TGI for "CCS(=O)(=O)c1ccc(OC)c(Nc2ncc(-c3cccc(OC)c3)o2)c1"
Output line: > 25 µM

Input line: Determine from records and report TGI for "O=C(CSc1ncccn1)N/N=C/c1ccccc1OCc1ccccc1"
Output line: 70.7 µM

Input line: Determine from records and report TGI for COc1ccc2c(c1)C=C([N+](=O)[O-])C(C1OC(C)(C)OC1C1COC(C)(C)O1)O2 (stereo not drawn)
Output line: 26.6 µM

* * *

Measured TGI accompanies every entry in the list below.
Test system: HCT-116 colon
testProtocol: NCI tumour cell line growth inhibition, 48 h

Recorded TGI, per entry:
Input line: Determine from records and report TGI for "C/C(Cl)=N/OC(=O)Nc1ccc(F)c([N+](=O)[O-])c1"
Output line: > 30.8 µM

Input line: Determine from records and report TGI for "CC[O-].CC[O-].O=C1c2ccccc2C(=O)c2c(O)ccc([O-])c21.O=C1c2ccccc2C(=O)c2c(O)ccc([O-])c21.[Ti+4]"
Output line: > 100 µM

Further cases:
Input line: Determine from records and report TGI for "COc1cc(OC)c(/C=C/C(=O)c2c(OC)cccc2OC)c(OC)c1"
Output line: > 100 µM

Input line: Determine from records and report TGI for "O=S(=O)(O)CCSSCCS(=O)(=O)O"
Output line: > 1000 µM

Input line: Determine from records and report TGI for "CC(=O)Nc1ccc(-c2nc3ccccc3s2)cc1Br"
Output line: > 100 µM

* * *

Measured TGI accompanies every entry in the list below.
System: HCC-2998 colon
testProtocol: NCI tumour cell line growth inhibition, 48 h

Recorded TGI, per entry:
Input line: Determine from records and report TGI for "CC(=O)OC1=NN=C2COC(c3ccccc3OC(C)=O)=NN2C1"
Output line: > 50 µM

Input line: Determine from records and report TGI for "CC1(n2nc(-c3ccccc3)n(-c3ccccc3)c2=O)CSC1"
Output line: > 100 µM

Input line: Determine from records and report TGI for CC(=O)OC1CC(O)C23COC(O)C1(C)C2CC(O)C1(C)C3C(=O)C(O)C2(C)C(c3ccoc3)CC3OC321 (stereo not drawn)
Output line: > 100 µM

Input line: Determine from records and report TGI for "Cc1cc(C)c(C(=O)CC(=O)c2cccnc2)c(C)c1"
Output line: > 100 µM

Input line: Determine from records and report TGI for "O=S(=O)(O)CCSSCCS(=O)(=O)O"
Output line: > 1000 µM

Input line: Determine from records and report TGI for "CN(C)CCNC(=O)c1cccc(C(=O)Nc2ccccc2)c1[N+](=O)[O-]"
Output line: > 100 µM

Input line: Determine from records and report TGI for "C1C2CC3CC1CC(c1nn4c(C56CC7CC(CC(C7)C5)C6)nnc4s1)(C2)C3"
Output line: > 100 µM

Further cases:
Input line: Determine from records and report TGI for CCOC1=NC(=O)CC(c2ccccc2)S1 (stereo not drawn)
Output line: > 100 µM
